Hi there, I'd appreciate the recorded selectivity ratio for every entry that follows.
- assay.procedure: in vitro
- condition.notes: monkey, Vero cells
No unit in the answer, please; the number alone is enough.

Give its selectivity ratio value. Item: O=C(NO)c1n[nH]nc1[C@@H]1O[C@H](CO)[C@@H](O)[C@H]1O 29.1

Give its selectivity ratio value. Item: NC(=O)c1ncn([C@@H]2O[C@H](CO)[C@@H](O)[C@H]2O)n1 [RIBAVIRIN] 41.6

----------
- assay.procedure: in vitro
- condition.notes: human, Huh7-J20 cells
# label = Condition met if selectivity ratio >= 20 else Condition not met

I'd appreciate it if you could say whether O=C(NCCCO)c1n[nH]nc1[C@@H]1O[C@H](CO)[C@@H](O)[C@H]1O has selectivity ratio at least equal to 20. Condition not met

I'd appreciate it if you could say whether NC(=O)c1ncn([C@@H]2O[C@H](CO)[C@@H](O)[C@H]2O)n1 has selectivity ratio at least equal to 20. Condition met

I'd appreciate it if you could say whether O=C(NO)c1n[nH]nc1[C@@H]1O[C@H](CO)[C@@H](O)[C@H]1O has selectivity ratio at least equal to 20. Condition not met

I'd appreciate it if you could say whether CCCNC(=O)c1n[nH]nc1[C@@H]1O[C@H](CO)[C@@H](O)[C@H]1O has selectivity ratio at least equal to 20. Condition not met

I'd appreciate it if you could say whether NC(=O)c1n[nH]nc1[C@@H]1O[C@H](CO)[C@@H](O)[C@H]1O has selectivity ratio at least equal to 20. Condition not met

----------
- assay.procedure: in vitro
- condition.notes: human, Huh7.5 cells
measurement.name: selectivity ratio
No unit in the answer, please; the number alone is enough.

Give its selectivity ratio value. Item: O=C(NO)c1n[nH]nc1[C@@H]1O[C@H](CO)[C@@H](O)[C@H]1O 23.8

Give its selectivity ratio value. Item: NC(=O)c1ncn([C@@H]2O[C@H](CO)[C@@H](O)[C@H]2O)n1 240
